Data provenance is patent US12103919B2.

target: WIZ (Homo sapiens, UniProt O95785+Q96SW2); construct: expressed in transfected cells; assay: Quantification of WIZ protein levels in HiBit tag fusion protein assay (293T cells); assay type: cell-based; settings: HEK-293T; DMSO-normalized, curve-fitted percentage of WIZ-HiBit remaining at 25 uM; read-out: WIZ Amax
Sequence (O95785 whole entry, the tested form may be a part): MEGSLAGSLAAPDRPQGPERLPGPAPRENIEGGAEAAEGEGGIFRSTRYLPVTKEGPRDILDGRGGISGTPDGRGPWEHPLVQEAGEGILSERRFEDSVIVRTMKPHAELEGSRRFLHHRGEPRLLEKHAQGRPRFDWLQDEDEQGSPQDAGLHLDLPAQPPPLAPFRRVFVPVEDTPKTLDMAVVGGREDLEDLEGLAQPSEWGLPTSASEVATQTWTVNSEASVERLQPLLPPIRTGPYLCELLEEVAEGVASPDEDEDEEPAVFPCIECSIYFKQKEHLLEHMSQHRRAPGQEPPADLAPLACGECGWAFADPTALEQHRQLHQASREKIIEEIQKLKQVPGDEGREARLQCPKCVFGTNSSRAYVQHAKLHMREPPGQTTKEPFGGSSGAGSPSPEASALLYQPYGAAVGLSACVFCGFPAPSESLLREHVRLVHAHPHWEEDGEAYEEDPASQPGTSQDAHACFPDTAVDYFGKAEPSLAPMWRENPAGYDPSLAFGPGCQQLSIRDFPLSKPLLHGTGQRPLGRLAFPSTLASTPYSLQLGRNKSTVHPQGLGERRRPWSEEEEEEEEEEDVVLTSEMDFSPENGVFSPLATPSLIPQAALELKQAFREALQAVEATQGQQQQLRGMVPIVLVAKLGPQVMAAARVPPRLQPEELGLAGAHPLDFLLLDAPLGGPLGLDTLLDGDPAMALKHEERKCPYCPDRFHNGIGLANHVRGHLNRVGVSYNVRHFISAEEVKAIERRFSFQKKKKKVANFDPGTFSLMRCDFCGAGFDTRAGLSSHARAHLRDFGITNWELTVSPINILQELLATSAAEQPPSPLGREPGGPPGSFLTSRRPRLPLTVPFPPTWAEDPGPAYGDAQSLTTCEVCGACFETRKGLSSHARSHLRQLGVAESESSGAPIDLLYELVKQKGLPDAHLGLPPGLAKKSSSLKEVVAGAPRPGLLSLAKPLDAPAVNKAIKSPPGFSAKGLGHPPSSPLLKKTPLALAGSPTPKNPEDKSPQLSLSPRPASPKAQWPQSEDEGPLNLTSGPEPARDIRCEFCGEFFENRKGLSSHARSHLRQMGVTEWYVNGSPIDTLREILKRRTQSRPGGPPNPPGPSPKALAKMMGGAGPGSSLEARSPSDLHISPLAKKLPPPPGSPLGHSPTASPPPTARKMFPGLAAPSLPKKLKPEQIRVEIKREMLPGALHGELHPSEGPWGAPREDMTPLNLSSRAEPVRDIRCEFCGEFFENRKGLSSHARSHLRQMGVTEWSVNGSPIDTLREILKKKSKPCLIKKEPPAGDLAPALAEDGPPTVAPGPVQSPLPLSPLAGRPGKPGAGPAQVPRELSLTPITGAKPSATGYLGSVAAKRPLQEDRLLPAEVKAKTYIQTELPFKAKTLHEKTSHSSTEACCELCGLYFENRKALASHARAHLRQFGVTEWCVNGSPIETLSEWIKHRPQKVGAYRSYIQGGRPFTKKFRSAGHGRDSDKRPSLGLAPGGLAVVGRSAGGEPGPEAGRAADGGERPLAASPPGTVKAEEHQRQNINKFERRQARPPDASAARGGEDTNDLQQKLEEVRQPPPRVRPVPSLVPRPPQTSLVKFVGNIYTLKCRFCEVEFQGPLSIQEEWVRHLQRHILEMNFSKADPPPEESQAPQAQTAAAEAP
Sequence (Q96SW2 whole entry, the tested form may be a part): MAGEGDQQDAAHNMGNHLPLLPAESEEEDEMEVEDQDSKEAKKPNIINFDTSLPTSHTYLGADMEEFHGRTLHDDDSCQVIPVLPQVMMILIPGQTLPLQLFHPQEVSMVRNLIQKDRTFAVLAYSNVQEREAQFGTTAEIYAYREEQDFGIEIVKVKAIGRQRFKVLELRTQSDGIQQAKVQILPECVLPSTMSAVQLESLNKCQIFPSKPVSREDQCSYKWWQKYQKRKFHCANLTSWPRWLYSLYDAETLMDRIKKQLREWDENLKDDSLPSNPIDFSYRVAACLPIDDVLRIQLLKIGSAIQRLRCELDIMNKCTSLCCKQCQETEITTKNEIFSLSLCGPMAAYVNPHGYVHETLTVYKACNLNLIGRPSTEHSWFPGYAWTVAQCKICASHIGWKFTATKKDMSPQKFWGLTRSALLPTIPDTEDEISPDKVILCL
Sequence (Q16531 whole entry partner, the tested form may be a part): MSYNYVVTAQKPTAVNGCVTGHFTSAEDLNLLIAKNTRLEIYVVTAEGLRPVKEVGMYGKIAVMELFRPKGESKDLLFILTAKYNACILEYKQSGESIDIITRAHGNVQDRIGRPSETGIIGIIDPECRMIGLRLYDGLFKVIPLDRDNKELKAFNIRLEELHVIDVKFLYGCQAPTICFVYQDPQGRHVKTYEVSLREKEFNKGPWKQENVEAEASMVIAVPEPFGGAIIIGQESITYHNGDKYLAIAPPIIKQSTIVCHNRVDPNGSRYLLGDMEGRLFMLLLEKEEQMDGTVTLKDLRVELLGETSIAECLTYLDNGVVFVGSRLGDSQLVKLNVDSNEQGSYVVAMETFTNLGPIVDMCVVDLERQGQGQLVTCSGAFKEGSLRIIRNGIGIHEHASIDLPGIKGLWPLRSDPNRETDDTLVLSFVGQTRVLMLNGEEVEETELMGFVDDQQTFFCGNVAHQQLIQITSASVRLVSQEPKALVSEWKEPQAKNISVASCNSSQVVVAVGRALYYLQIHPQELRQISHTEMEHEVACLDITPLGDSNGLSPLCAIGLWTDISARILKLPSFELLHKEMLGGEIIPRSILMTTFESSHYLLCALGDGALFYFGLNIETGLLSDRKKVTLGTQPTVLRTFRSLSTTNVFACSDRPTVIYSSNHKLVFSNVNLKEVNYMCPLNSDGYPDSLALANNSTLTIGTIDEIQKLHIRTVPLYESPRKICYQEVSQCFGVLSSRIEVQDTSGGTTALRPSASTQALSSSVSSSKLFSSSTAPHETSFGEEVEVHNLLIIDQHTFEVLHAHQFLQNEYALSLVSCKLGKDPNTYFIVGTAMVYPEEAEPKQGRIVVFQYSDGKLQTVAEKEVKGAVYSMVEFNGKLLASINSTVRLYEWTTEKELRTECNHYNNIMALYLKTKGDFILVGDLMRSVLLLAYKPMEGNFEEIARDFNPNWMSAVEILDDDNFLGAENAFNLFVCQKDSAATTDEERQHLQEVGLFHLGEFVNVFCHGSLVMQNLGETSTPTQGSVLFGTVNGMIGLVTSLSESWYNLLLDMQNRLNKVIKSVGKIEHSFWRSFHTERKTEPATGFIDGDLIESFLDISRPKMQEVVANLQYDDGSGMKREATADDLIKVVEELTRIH
QUANTITY: remaining activity at 25 µM (%)

COMPOUND	MEASURE UNIT	remaining activity at 25 µM
CC#CCN1CCC[C@@H](Oc2ccc3c(c2)CN(C2CCC(=O)NC2=O)C3=O)C1 (stereo partly shown)	%	47.3
CCN1C[C@H](OC)C[C@@H](Oc2ccc3c(c2)CN(C2CCC(=O)NC2=O)C3=O)C1 (single isomer, unassigned)	%	18.1
C=CCCN1CCC[C@@H](Oc2ccc3c(c2)CN(C2CCC(=O)NC2=O)C3=O)C1 (stereo partly shown)	%	31.4
O=C1CCC(N2Cc3cc(O[C@@H]4CCCN(C5COC5)C4)ccc3C2=O)C(=O)N1 (stereo partly shown)	%	68.5
CCN1CCC(C)(C)C(Oc2ccc3c(c2)CN(C2CCC(=O)NC2=O)C3=O)C1 (single isomer, unassigned)	%	91.4

(A) CCN1C[C@H]2C[C@H]2[C@H](Oc2ccc3c(c2)CN(C2CCC(=O)NC2=O)C3=O)C1 (single isomer, unassigned)
(B) CC(C)CN1CCC2(CC2)[C@@H](Oc2ccc3c(c2)CN(C2CCC(=O)NC2=O)C3=O)C1 (stereo partly shown)
Looking at A and B , which one comes out lower in remaining activity at 25 µM terms? Let me know the label of the one you choose.
B
(B: 40.9%, A: 75.9%)
